target: Caspase-3 (Homo sapiens); assay: SAR Analysis of small molecule inhibitors of Sentrin-specific proteases (SENPs) using a Caspase-3 Selectivity assay. [Related pubchem assays (depositor defined):AID2540, AID2599, AID434973, AID489001]; type: functional
Sequence (P42574 29-175 limits assumed): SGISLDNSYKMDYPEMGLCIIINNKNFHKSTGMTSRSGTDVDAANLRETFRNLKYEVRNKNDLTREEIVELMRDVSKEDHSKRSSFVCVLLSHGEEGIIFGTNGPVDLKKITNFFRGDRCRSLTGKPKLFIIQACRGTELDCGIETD
Sequence (P42574 176-277 limits assumed): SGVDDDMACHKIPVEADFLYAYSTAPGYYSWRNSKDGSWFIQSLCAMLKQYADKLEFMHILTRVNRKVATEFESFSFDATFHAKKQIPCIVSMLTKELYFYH
Activity calls are given as the source filed them.
Bench note: report the call from active, inactive

Here's what some known entries look like.
>>> print(df.to_string())
                               query_smiles       cat
0   CCCCc1ccc2nc(NC(=O)c3oc4ccccc4c3C)sc2c1  inactive
1        CCCc1ccccc1-c1nc(/C=C/c2ccccc2)no1  inactive
2  CC(=O)Nc1ccc(/C=C/c2noc(-c3ccccc3O)n2)cc1    active
3  CCOc1ccc2nc(NC(=O)Cn3c(=O)oc4ccc(C(=O)N5CCCC5)cc43)sc2c1  inactive
4  Cc1[nH]c(=O)sc1S(=O)(=O)N1CCN(C(=O)c2sc3cc(F)ccc3c2Cl)CC1  inactive
5  O=C(NNc1cc(N2CCCC2)nc(N2CCCC2)n1)c1ccc([N+](=O)[O-])cc1    active

Attention now shifts to the item below.
Prompt: For this molecule, state the assay outcome: CN(C)CCN(C(=O)c1ccc(Cl)s1)c1nc2ccc(F)cc2s1
Completion: inactive

====

Target: Corticotropin-releasing factor receptor 2/Corticotropin-releasing factor-binding protein (Homo sapiens, UniProt P24387+Q13324)
Sequence (Q13324 whole entry): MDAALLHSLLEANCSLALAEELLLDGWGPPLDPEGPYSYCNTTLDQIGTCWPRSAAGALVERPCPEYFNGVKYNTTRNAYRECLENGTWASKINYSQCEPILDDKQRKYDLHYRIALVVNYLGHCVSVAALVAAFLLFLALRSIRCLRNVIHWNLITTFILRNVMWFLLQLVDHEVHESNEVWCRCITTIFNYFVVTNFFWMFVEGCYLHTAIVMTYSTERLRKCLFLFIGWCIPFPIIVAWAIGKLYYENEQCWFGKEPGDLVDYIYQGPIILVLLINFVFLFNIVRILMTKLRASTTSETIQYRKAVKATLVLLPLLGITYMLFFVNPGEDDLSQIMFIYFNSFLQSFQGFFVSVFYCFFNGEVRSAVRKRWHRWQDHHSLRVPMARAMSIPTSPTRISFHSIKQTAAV
Sequence (P24387 whole entry): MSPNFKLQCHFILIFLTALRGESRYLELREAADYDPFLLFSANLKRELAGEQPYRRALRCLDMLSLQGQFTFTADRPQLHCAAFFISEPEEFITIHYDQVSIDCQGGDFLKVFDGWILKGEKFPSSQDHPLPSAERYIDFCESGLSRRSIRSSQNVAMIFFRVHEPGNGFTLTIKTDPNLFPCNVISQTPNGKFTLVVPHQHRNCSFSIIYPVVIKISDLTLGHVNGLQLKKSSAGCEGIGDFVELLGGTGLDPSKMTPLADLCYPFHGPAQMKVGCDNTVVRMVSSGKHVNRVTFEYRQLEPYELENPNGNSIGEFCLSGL
Experiment: Dose Response confirmation of uHTS hits for small molecule antagonists of the CRF-binding protein and CRF-R2 receptor complex.
Assay type: functional
Settings: read-out: IC50_Mean
Activity calls are given as the source filed them.
Bench note: report the call from active, inactive

>>> df
                                   molecule       cat
0     CCN1C(=O)C(=O)N(Cc2ccc(OC)c(F)c2)C1=O  inactive
1  Cc1ccc(CNC(=O)CCNC(=O)Cn2ccc3ccccc3c2=O)cc1  inactive
2  O=C(NCc1ccc2c(c1)OCO2)c1c(F)c(F)c(F)c(F)c1F    active
3   O=C(CCOc1ccccc1)Nc1ccc([N+](=O)[O-])cc1  inactive
4    CC(C(=O)NCCN1CCOCC1)(c1ccccc1)c1ccccc1  inactive

Prompt: For this molecule, state the assay outcome: CSCCC(NC(=O)c1cccc(C)c1)C(=O)NNC(=O)c1cccs1 (stereo unspecified)
Completion: inactive

====

Molecular target: Sentrin-specific protease 6 (Homo sapiens)
Sequence (Q9GZR1 whole entry): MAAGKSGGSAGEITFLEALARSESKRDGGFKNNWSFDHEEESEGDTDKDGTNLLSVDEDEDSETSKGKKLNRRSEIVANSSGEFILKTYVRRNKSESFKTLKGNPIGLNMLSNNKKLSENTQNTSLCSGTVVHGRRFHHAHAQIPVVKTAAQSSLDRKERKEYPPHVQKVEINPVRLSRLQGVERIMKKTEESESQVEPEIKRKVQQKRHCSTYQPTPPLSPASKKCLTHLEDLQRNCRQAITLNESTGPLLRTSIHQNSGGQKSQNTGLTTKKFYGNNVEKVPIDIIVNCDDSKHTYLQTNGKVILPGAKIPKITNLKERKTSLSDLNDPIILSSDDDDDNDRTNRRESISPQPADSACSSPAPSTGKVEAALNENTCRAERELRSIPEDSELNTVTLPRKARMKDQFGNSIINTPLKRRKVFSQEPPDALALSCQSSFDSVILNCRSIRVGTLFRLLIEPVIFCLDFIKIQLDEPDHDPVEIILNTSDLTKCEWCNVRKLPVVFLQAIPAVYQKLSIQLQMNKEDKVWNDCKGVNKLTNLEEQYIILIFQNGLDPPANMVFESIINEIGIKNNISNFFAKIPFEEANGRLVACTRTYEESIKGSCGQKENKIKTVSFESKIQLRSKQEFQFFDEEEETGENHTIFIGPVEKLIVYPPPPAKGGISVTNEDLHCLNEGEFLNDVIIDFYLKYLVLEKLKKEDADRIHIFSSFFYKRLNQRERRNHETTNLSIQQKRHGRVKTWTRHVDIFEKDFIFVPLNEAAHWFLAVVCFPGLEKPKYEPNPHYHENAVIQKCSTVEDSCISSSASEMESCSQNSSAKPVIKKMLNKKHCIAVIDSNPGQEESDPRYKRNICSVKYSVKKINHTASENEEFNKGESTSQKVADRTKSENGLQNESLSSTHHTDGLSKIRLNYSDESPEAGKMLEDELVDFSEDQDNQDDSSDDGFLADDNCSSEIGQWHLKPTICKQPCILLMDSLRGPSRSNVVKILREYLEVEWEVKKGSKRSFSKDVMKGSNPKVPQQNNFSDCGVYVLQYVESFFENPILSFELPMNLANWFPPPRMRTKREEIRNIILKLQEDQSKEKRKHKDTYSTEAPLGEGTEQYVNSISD
Test: SAR Analysis of small molecule inhibitors of Sentrin-specific protease 6 (SENP6) using a Luminescent assay. [Related pubchem assays (depositor defined):AID2582, AID2599]
Format: functional
Activity calls are given as the source filed them.
Bench note: report the call from active, inactive

Here's what some known entries look like.
>>> print(df.to_string())
                               query_smiles                       experimental_system       cat
0  CN(C)CCN(C(=O)c1ccc(Cl)s1)c1nc2ccc(F)cc2s1  Sentrin-specific protease 6 (Homo sapiens)  inactive
1        CCCc1ccccc1-c1nc(/C=C/c2ccccc2)no1  Sentrin-specific protease 6 (Homo sapiens)  inactive
2  Cc1[nH]c(=O)sc1S(=O)(=O)N1CCN(C(=O)c2sc3cc(F)ccc3c2Cl)CC1  Sentrin-specific protease 6 (Homo sapiens)  inactive
3   CCCCc1ccc2nc(NC(=O)c3oc4ccccc4c3C)sc2c1  Sentrin-specific protease 6 (Homo sapiens)  inactive
4  O=C(NNc1cc(N2CCCC2)nc(N2CCCC2)n1)c1ccc([N+](=O)[O-])cc1  Sentrin-specific protease 6 (Homo sapiens)    active
5  CCOc1ccc2nc(NC(=O)Cn3c(=O)oc4ccc(C(=O)N5CCCC5)cc43)sc2c1  Sentrin-specific protease 6 (Homo sapiens)  inactive

Prompt: For this compound, state the assay outcome: CC(=O)Nc1ccc(/C=C/c2noc(-c3ccccc3O)n2)cc1
Completion: inactive

====

Here the recorded EC50 is given for each entry.
biological target: Heat shock factor protein 1 (Mus musculus, UniProt P38532); test: inhibition of MG132-induced HSE-luciferase signal, confirmation, cell-based, NIH3T3, luminescence, dose retest (AID 2382); format: functional;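 further: NIH3T3 fibroblasts with HSF1-driven luciferase reporter stressed by proteasome inhibitor MG132; luminescence from HSF1-driven luciferase expression after 8 hours of MG132 stress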
Sequence (P38532 whole entry): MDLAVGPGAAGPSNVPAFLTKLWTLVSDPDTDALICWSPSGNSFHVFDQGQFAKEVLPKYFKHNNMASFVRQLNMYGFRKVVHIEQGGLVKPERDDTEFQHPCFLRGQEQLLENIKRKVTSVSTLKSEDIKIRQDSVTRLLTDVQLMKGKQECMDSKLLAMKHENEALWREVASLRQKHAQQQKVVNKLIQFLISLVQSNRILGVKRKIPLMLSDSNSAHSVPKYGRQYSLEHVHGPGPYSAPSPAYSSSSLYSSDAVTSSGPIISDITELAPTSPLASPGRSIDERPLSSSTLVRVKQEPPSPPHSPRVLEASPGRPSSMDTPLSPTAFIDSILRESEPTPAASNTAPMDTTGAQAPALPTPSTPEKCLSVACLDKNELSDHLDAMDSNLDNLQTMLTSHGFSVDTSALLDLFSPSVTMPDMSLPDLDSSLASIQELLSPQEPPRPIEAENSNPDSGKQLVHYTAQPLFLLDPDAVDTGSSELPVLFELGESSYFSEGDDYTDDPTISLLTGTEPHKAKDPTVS

                        molecule                reading
0  CC(C)OCCCn1c(NN)nc2ccccc2c1=O  > 195 µM (not active)

Now, please, on to the next molecule.
What the record says about COC(=O)C(Cc1ccccc1)NC(=O)CNC(=O)c1sc2ccccc2c1Cl (stereo not drawn) : EC50 is > 195 µM (not active)

====

target: Cytochrome P450 2C19 (Homo sapiens, UniProt P33261); experiment: Cytochrome panel assay with activity outcomes. Panel member name: p450-cyp2c19 Compounds with AC50 equal or less than 10 uM are considered active; assay type: functional; settings: read-out: AC50
Sequence (P33261 whole entry): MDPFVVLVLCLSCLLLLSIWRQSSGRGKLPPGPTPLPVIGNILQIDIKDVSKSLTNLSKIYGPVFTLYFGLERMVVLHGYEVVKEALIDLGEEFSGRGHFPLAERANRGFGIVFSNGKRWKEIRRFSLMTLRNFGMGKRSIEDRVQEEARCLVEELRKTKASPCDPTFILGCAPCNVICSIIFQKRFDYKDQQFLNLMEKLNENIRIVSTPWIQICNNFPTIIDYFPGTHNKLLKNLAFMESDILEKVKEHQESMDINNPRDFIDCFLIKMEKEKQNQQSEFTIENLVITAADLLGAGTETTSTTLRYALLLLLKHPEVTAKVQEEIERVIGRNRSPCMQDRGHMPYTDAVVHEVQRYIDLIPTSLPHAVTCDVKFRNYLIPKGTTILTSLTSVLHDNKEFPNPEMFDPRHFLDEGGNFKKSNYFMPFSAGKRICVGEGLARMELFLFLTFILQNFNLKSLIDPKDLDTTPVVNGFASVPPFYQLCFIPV
attribute_measured: AC50

Known AC50 results, listed for orientation:
>>> df
                                   molecule  attribute_measured                    reading
0  CC(C)=C1C(=O)C(c2ccccc2)=C2CN3C(=O)N(CCc4ccccc4)C(=O)[C@]3(Cc3ccccc3)[C@H]21                AC50     25.1 µM (inconclusive)
1  COc1ccccc1/C=C/C=N/N1CCN(Cc2ccc(Cl)cc2)CC1.Cl                AC50     6.31 µM (inconclusive)
2  CN(/C=C/C1=[N+](C)c2ccccc2C1(C)C)c1ccccc1                AC50  0.00708 µM (inconclusive)
3  C=CCOc1ccc2cccc(/C=N/NC(=O)c3cc4cc([N+](=O)[O-])ccc4s3)c2c1                AC50    0.398 µM (inconclusive)
4          CC(=O)COc1ccc2c(C)c(C)c(=O)oc2c1                AC50    0.178 µM (inconclusive)
5  Cc1ccc(Cn2nnc3c(O)nc(C4CCCN(C(=O)Nc5ccc(F)cc5F)C4)nc32)cc1 (stereo unspecified)                AC50     39.8 µM (inconclusive)
6   Cc1cc(C)c2c(SCc3ccc(Cl)cc3Cl)nc(N)nc2n1                AC50        1 µM (inconclusive)
7  Cc1ccc(C)c(N2CCN(C(=O)C3CCN(S(=O)(=O)c4cccc5nsnc45)CC3)CC2)c1                AC50     4.47 µM (inconclusive)

What the record says about COc1cc2c(cc1OC)CN(CC(=O)Nc1ccc3c(c1)OCO3)CC2 : AC50 is 22.4 µM (inconclusive)

What the record says about CC(C)c1ccc(O)c(NC(=O)c2nc[nH]n2)c1 : AC50 is 25.1 µM (inconclusive)

What the record says about CN(N=O)c1cc(O)ccc1O : AC50 is 25.1 µM (inconclusive)
